# log10(MIC) per record follows
# Test system: Bacillus cereus
# ASSAY: Antibacterial activity against Bacillus cereus ATCC 11778 assessed as growth inhibition after 24 hr by agar streak dilution method
# Assay type: functional
# ASSAY CONDITIONS: ATCC 11778, 24 h
QUANTITY NAME: log10(MIC) (log10 of the value in µg/mL)

molecule=Cc1nc2ccccc2c(=O)n1-c1ccc(NC(=O)CN/N=C/c2ccc(O)cc2)cc1 assay_target="Bacillus cereus" experimental_result=2.10
molecule=Cc1nc2ccccc2c(=O)n1-c1ccc(NC(=O)CN/N=C\c2c[nH]c3ccccc23)cc1 assay_target="Bacillus cereus" experimental_result=1.49
molecule=Cc1nc2ccccc2c(=O)n1-c1ccc(NC(=O)CN/N=C/c2ccc(Cl)cc2)cc1 assay_target="Bacillus cereus" experimental_result=1.19
molecule=Cc1ccc(/C=N\NCC(=O)Nc2ccc(-n3c(C)nc4ccccc4c3=O)cc2)o1 assay_target="Bacillus cereus" experimental_result=1.80
molecule=Cc1nc2ccccc2c(=O)n1-c1ccc(NC(=O)CN/N=C/c2ccc([N+](=O)[O-])cc2)cc1 assay_target="Bacillus cereus" experimental_result=0.89

----------
# System: Rattus norvegicus
# ASSAY: Ulcerogenecity in Rattus norvegicus Wistar albino (rat) stomach assessed as ulcer index administered 20 mg/kg, ip qd for 3 days measured on day 4 relative to aspirin
# Type: ADME, organism-based
# Set-up: dose 20 mg/kg, route intraperitoneal
# ASSAY CONDITIONS: in vivo, 72 h
Overview of recorded UI for various compounds
QUANTITY NAME: UI (%)

molecule=Cc1ccc(/C=N\NCC(=O)Nc2ccc(-n3c(C)nc4ccccc4c3=O)cc2)o1 experimental_result=31
molecule=COc1ccc(/C=N/NCC(=O)Nc2ccc(-n3c(C)nc4ccccc4c3=O)cc2)cc1 experimental_result=51
molecule=Cc1nc2ccccc2c(=O)n1-c1ccc(NC(=O)CN/N=C/c2ccc(O)cc2)cc1 experimental_result=31
molecule=Cc1nc2ccccc2c(=O)n1-c1ccc(NC(=O)CN/N=C/c2ccc(F)cc2)cc1 experimental_result=31
molecule=Cc1ccc(/C=N/NCC(=O)Nc2ccc(-n3c(C)nc4ccccc4c3=O)cc2)cc1 experimental_result=31

----------
Known UI of a selection of molecules
# Test system: Rattus norvegicus
# ASSAY: Ulcerogenecity in Rattus norvegicus Wistar albino (rat) stomach assessed as ulcer index administered 20 mg/kg, ip qd for 3 days measured on day 4 relative to diclofenac
# Format: ADME, organism-based
# Set-up: dose 20 mg/kg, route intraperitoneal
# ASSAY CONDITIONS: in vivo, 72 h
QUANTITY NAME: UI (%)

molecule=Cc1nc2ccccc2c(=O)n1-c1ccc(NC(=O)CN/N=C/c2ccc(F)cc2)cc1 assay_target="Rattus norvegicus" quantity_name=UI experimental_result=34
molecule=Cc1nc2ccccc2c(=O)n1-c1ccc(NC(=O)CN/N=C/c2ccc([N+](=O)[O-])cc2)cc1 assay_target="Rattus norvegicus" quantity_name=UI experimental_result=34
molecule=Cc1ccc(/C=N\NCC(=O)Nc2ccc(-n3c(C)nc4ccccc4c3=O)cc2)o1 assay_target="Rattus norvegicus" quantity_name=UI experimental_result=34
molecule=Cc1nc2ccccc2c(=O)n1-c1ccc(NC(=O)CN/N=C\c2c[nH]c3ccccc23)cc1 assay_target="Rattus norvegicus" quantity_name=UI experimental_result=34
molecule=Cc1nc2ccccc2c(=O)n1-c1ccc(NC(=O)CN/N=C/c2ccc(O)cc2)cc1 assay_target="Rattus norvegicus" quantity_name=UI experimental_result=34
molecule=Cc1nc2ccccc2c(=O)n1-c1ccc(NC(=O)CN/N=C/c2ccc(Cl)cc2)cc1 assay_target="Rattus norvegicus" quantity_name=UI experimental_result=34
molecule=Cc1nc2ccccc2c(=O)n1-c1ccc(NC(=O)CN/N=C/c2ccccc2)cc1 assay_target="Rattus norvegicus" quantity_name=UI experimental_result=34
molecule=COc1ccc(/C=N/NCC(=O)Nc2ccc(-n3c(C)nc4ccccc4c3=O)cc2)cc1 assay_target="Rattus norvegicus" quantity_name=UI experimental_result=51
molecule=Cc1nc2ccccc2c(=O)n1-c1ccc(NC(=O)CN/N=C/c2ccc(C(F)(F)F)cc2)cc1 assay_target="Rattus norvegicus" quantity_name=UI experimental_result=32
molecule=Cc1ccc(/C=N/NCC(=O)Nc2ccc(-n3c(C)nc4ccccc4c3=O)cc2)cc1 assay_target="Rattus norvegicus" quantity_name=UI experimental_result=34
